The reported numbers originate from patent US11401278B2.

Test system: MV-4-11
Run Description: Antiproliferation assay (Assay 7), MV-4-11
Type: cell-based
Measurement Parameters: Homo sapiens, MV4-11, 72 h, CellTiter-Glo, several values per example, read-out: Antiproli MV-4-11 [M] IC50
Endpoint Label: IC50 (M)

Past entries and their recorded results:
Molecule	Endpoint Label	Measured Result
Cc1c2c(nn1C)CN(C)S(=O)(=O)CCCn1c(C(=O)O)c(CCCOc3cccc4cc(F)ccc34)c3ccc(F)c-2c31 (racemic)	IC50	1.73e-06
Cc1c2c(nn1C)CN(CCN1CCOCC1)S(=O)(=O)CCCn1c(C(=O)O)c(CCCOc3cccc4ccccc34)c3cccc-2c31 (single isomer, unassigned; enantiomer 1) [Example 2]	IC50	1.17e-05
CCc1c2c(nn1C)CN(C)S(=O)(=O)CCCn1c(C(=O)O)c(CCCOc3cccc4c3CCC4)c3ccc(F)c-2c31 (racemic)	IC50	2.2e-06

I: CCc1c2c(nn1C)CN(C)S(=O)(=O)CCCn1c(C(=O)O)c(CCCOc3cc(C)c(Cl)c(C)c3)c3ccc(Cl)c-2c31
II: CCc1c2c(nn1C)CN(C)S(=O)(=O)CCCn1c(C(=O)O)c(CCCOc3cccc4cc(F)ccc34)c3ccc(Cl)c-2c31 (racemic)
III: CCc1c2c(nn1C)CN(CCCN1CCOCC1)S(=O)(=O)CCCn1c(C(=O)O)c(CCCOc3cccc4ccccc34)c3cccc-2c31 (racemic)
Task item: Sort the molecules on IC50; start with the lowest figure. Answer by listing the labels in the order asked for.
Reply: II, I, III
(II: 8.39e-07 M, I: 2.41e-06 M, III: 9.37e-06 M)

====

Target Desc: BCL-2 (Homo sapiens (Human), UniProt P10415)
Sequence (P10415 other isoform, or with tags, fused parts or gaps): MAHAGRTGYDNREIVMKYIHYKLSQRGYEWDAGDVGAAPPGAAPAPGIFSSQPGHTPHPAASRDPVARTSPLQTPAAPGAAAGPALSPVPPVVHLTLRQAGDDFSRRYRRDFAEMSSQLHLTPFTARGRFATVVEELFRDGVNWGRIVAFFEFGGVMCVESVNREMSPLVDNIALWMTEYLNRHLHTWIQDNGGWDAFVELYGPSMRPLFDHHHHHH
Run Description: Protein-protein interaction assay BCL-2/Bad BH3 peptide (BCL-2 assay, TR-FRET)
Type: binding
Measurement Parameters: His-BCL-2 / Bad BH3 peptide, median
Endpoint Label: IC50 (µM)

Molecule	Unit Abbreviation	IC50
CCc1c2c(nn1C)C(CCC1CCOCC1)N(C)S(=O)(=O)CCCn1c(C(=O)O)c(CCCOc3cccc4cc(F)ccc34)c3ccc(Cl)c-2c31 (single isomer, unassigned; enantiomer 1) [Example 61]	µM	16
CCc1c2c(nn1C)CN(C)S(=O)(=O)CCCn1c(C(=O)O)c(CCCOc3cccc4cc(F)ccc34)c3ccc(Cl)c-2c31 (single isomer, unassigned; enantiomer 1) [Example 36]	µM	18

====

Test system: SUDHL5
Run Description: Induction of caspase-3/7 activity (Assay 4), SUDHL5
Assay type: cell-based
Measurement Parameters: caspase-3/7 induction, 3 hours, median
Endpoint Label: EC50 (nM)

Compound	EC50 [nM]
CCc1c2c(nn1C)CN(C)S(=O)(=O)CCCn1c(C(=O)O)c(CCCOc3cccc4cc(F)ccc34)c3ccc(Cl)c-2c31 (single isomer, unassigned; enantiomer 1) [Example 36]	85

A: Cc1c2c(nn1C)C(CCN1CCOCC1)N(C)S(=O)(=O)CCCn1c(C(=O)O)c(CCCOc3cccc4cc(F)ccc34)c3ccc(Cl)c-2c31 (racemic) [Example 65]
B: CCc1c2c(nn1C)CN(C)S(=O)(=O)CCCn1c(C(=O)O)c(CCCOc3cccc4cc(F)ccc34)c3ccc(F)c-2c31 (single isomer, unassigned; enantiomer 2) [Example 9]
Task item: Which of the two items, A and B , has the greater recorded EC50? Answer by stating the label of the chosen item.
Reply: B
